# System: SW-620
# runDescription: Cytotoxicity against human SW620 cells after 3 days by MTT assay
# Format: functional
# statedConditions: SW-620, 72 h, read-out: ED50 (the source's name)
Consider the following compounds; for each one, report its EC50.
One number for each entry, in µg/mL.

// below: answered compounds
{"smilesData": "COc1ccc(/C=C2/C(=O)N(c3c(Cl)cccc3Cl)c3ccccc32)cc1OC", "EC50, µg/mL": 50}
{"smilesData": "O=C1/C(=C/c2ccc(O)cc2)c2ccccc2N1c1c(Cl)cccc1Cl", "EC50, µg/mL": 50}
{"smilesData": "O=C1/C(=C/c2cccc(Cl)c2)c2ccccc2N1c1c(Cl)cccc1Cl", "EC50, µg/mL": 50}
{"smilesData": "O=C1/C(=C/c2cccc(Oc3ccccc3)c2)c2ccccc2N1c1c(Cl)cccc1Cl", "EC50, µg/mL": 50}
{"smilesData": "O=C1/C(=C/c2ccc(Cl)cc2)c2ccccc2N1c1c(Cl)cccc1Cl", "EC50, µg/mL": 100}

Switching to the query record.
In: Quickly give me recorded EC50 for `O=C1/C(=C/c2ccccc2)c2ccccc2N1c1c(Cl)cccc1Cl`
Out: 100
